assayed_target: Cholinesterase (Equus caballus)
protocol_description: Inhibition of equine serum BChE using butyrylthiocholine chloride as substrate incubated for 15 mins by Ellman's method
Simple rule here: IC50 less than 10 µM is Criterion met, otherwise Criterion not met.

Ask: Hello, I'm reviewing records and need to know if IC50 of COc1ccccc1CN(C)CCCN1C(=O)c2ccccc2C1=O is below 10 µM. Could you check?
Reply: Criterion met

Ask: Try the compound C#CCN(CCCCCCN1C(=O)c2ccccc2C1=O)Cc1ccccc1OC
Reply: Criterion not met

Ask: Please give the result for CC(C)N1CCN(CCCCCCN2C(=O)c3ccccc3C2=O)CC1 too.
Reply: Criterion not met

Ask: Repeat with CC(C)N1CCN(CCCCCN2C(=O)c3ccccc3C2=O)CC1
Reply: Criterion not met

Ask: Likewise for C#CCN(CCCCCN1C(=O)c2ccccc2C1=O)Cc1ccccc1 ?
Reply: Criterion not met

Ask: Same again, this time with CCN(CCCN1C(=O)c2ccccc2C1=O)Cc1ccccc1OC
Reply: Criterion not met

Ask: What about this compound? CCN(CCCCCCN1C(=O)c2ccccc2C1=O)Cc1ccccc1
Reply: Criterion not met

Ask: Further, for CC(C)N1CCN(CCCN2C(=O)c3ccccc3C2=O)CC1 ?
Reply: Criterion not met

Ask: Then this compound: CCN(CCCN1C(=O)c2ccccc2C1=O)Cc1ccccc1
Reply: Criterion met

Ask: How about this compound: C#CCN(CCCCCCN1C(=O)c2ccccc2C1=O)Cc1ccccc1
Reply: Criterion met

Ask: Moving on to CC(C)N1CCN(CCCCN2C(=O)c3ccccc3C2=O)CC1
Reply: Criterion not met

---

assayed_target: Amine oxidase [flavin-containing] B (Homo sapiens, UniProt P27338)
Sequence (P27338 whole entry): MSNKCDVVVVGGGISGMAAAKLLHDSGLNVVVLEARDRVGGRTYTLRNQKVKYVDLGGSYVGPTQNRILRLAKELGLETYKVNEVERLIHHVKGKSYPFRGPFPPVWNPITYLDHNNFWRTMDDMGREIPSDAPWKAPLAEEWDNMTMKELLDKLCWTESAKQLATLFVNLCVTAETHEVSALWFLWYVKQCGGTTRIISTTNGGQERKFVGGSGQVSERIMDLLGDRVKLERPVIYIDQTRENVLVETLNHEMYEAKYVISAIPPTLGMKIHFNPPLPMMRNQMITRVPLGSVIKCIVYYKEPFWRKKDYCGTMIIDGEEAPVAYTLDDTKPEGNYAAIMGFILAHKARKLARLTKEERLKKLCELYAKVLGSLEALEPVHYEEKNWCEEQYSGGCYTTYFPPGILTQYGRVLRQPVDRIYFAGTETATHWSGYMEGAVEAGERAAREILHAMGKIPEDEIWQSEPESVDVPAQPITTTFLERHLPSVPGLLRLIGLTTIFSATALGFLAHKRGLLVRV
protocol_description: Inhibition of human recombinant MAO-B expressed in baculovirus infected BTI insect cells using kynuramine as substrate after 30 mins by fluorescence assay
Field: IC50. Provide a value for each of the molecules that follow.
Entry rule: numbers only, all in µM.

Ask: What does the data say about its IC50? Entry: COc1ccccc1CN(C)CCCN1C(=O)c2ccccc2C1=O
Reply: 9.8

Ask: Ok, now CC(C)N1CCN(CCCCN2C(=O)c3ccccc3C2=O)CC1
Reply: 8.9

Ask: Repeat for the following molecule: C#CCN(CCCCCN1C(=O)c2ccccc2C1=O)Cc1ccccc1OC
Reply: 6.3

Ask: What about this molecule? CCN(CCCCN1C(=O)c2ccccc2C1=O)Cc1ccccc1OC
Reply: 9.4

Ask: CCN(CCN1C(=O)c2ccccc2C1=O)Cc1ccccc1OC , same question.
Reply: 6.9

Ask: Try the molecule CCN(CCCCCCN1C(=O)c2ccccc2C1=O)Cc1ccccc1
Reply: 12.2

Ask: Also check CN(CCN1C(=O)c2ccccc2C1=O)Cc1ccccc1
Reply: 7.3

Ask: And for CC(C)N1CCN(CCCCCCN2C(=O)c3ccccc3C2=O)CC1 ?
Reply: 13.1

Ask: Try the molecule CCN(CCCN1C(=O)c2ccccc2C1=O)Cc1ccccc1
Reply: 6.9

Ask: And then COc1ccccc1CN(C)CCCCN1C(=O)c2ccccc2C1=O , what is it?
Reply: 11.6

Ask: Check CN(CCCCN1C(=O)c2ccccc2C1=O)Cc1ccccc1 too.
Reply: 4.2

Ask: Same question for CCN(CCCCN1C(=O)c2ccccc2C1=O)Cc1ccccc1 please.
Reply: 6.9

Ask: Moving on to COc1ccccc1CN(C)CCCCCCN1C(=O)c2ccccc2C1=O
Reply: 11.3

Ask: What do we get for C#CCN(CCCN1C(=O)c2ccccc2C1=O)Cc1ccccc1 ?
Reply: 2.6

Ask: // repeat for CN(CCCCCCN1C(=O)c2ccccc2C1=O)Cc1ccccc1 and report
Reply: 8.3

Ask: # iterate: C#CCN(CCCCCCN1C(=O)c2ccccc2C1=O)Cc1ccccc1OC
Reply: 9.1

Ask: Would you mind doing CN(CCCN1C(=O)c2ccccc2C1=O)Cc1ccccc1 as well?
Reply: 6.1

Ask: What do you have for C#CCN(CCCCN1C(=O)c2ccccc2C1=O)Cc1ccccc1 ?
Reply: 6.5

Ask: Another molecule to look at: COc1ccccc1CN(C)CCN1C(=O)c2ccccc2C1=O
Reply: 8.4

Ask: What do you have for CCN(CCCN1C(=O)c2ccccc2C1=O)Cc1ccccc1OC ?
Reply: 4.7

Ask: Now the same for C#CCN(CCCN1C(=O)c2ccccc2C1=O)Cc1ccccc1OC
Reply: 7.6

Ask: Entry to check: CCN(CCCCCCN1C(=O)c2ccccc2C1=O)Cc1ccccc1OC
Reply: 11.7

Ask: Now give it for CCN(CCN1C(=O)c2ccccc2C1=O)Cc1ccccc1 too.
Reply: 8.3

Ask: Next molecule: CC(C)N1CCN(CCCCCN2C(=O)c3ccccc3C2=O)CC1
Reply: 12.6

---

Provide the reported IC50 of each item.
assayed_target: Amine oxidase [flavin-containing] B (Homo sapiens, UniProt P27338)
protocol_description: Inhibition of human recombinant MAO-B expressed in baculovirus infected BTI insect cells using kynuramine as substrate after 30 mins by fluorescence assay

Ask: What measured IC50 goes with C#CCN(CCCCCCN1C(=O)c2ccccc2C1=O)Cc1ccccc1 ?
Reply: 8.2 µM

Ask: Now give it for CC(C)N1CCN(CCCN2C(=O)c3ccccc3C2=O)CC1 too.
Reply: 10.4 µM

Ask: What would you report for C#CCN(CCCCCN1C(=O)c2ccccc2C1=O)Cc1ccccc1 ?
Reply: 5.9 µM

Ask: Then C#CCN(CCCCN1C(=O)c2ccccc2C1=O)Cc1ccccc1OC ?
Reply: 5.6 µM

---

assayed_target: Cholinesterase (Equus caballus, UniProt P81908)
Sequence (P81908 whole entry): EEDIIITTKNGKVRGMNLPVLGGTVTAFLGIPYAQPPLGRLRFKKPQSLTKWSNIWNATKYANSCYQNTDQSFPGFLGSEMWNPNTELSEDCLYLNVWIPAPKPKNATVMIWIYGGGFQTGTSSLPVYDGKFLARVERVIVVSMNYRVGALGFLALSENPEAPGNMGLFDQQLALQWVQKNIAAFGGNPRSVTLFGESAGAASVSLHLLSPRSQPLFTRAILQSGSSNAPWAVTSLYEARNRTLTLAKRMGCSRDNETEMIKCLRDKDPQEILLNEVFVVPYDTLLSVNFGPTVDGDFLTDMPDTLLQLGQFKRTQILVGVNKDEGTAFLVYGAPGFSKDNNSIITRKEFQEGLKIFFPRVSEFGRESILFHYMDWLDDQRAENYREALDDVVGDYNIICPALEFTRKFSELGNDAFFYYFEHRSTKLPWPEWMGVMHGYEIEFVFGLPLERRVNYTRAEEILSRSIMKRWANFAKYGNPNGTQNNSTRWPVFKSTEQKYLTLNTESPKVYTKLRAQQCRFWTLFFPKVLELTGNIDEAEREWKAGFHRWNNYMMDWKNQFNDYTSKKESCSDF
protocol_description: Inhibition of equine serum BChE using butyrylthiocholine chloride as substrate incubated for 15 mins by Ellman's method
assay_endpoint: IC50
Enter the number, and then the unit.

Ask: Suppose we examine the compound CCN(CCN1C(=O)c2ccccc2C1=O)Cc1ccccc1OC ; what IC50 value has been reported?
Reply: 18.3 µM

Ask: Now consider C#CCN(CCCCCN1C(=O)c2ccccc2C1=O)Cc1ccccc1OC and answer again.
Reply: 26.3 µM

Ask: Also COc1ccccc1CN(C)CCN1C(=O)c2ccccc2C1=O ?
Reply: 11.9 µM

Ask: For COc1ccccc1CN(C)CCCCN1C(=O)c2ccccc2C1=O then?
Reply: 7.9 µM

Ask: Next: CCN(CCCCCCN1C(=O)c2ccccc2C1=O)Cc1ccccc1OC
Reply: 7.3 µM

Ask: Would you mind doing C#CCN(CCCN1C(=O)c2ccccc2C1=O)Cc1ccccc1OC as well?
Reply: 5.8 µM

Ask: And what about the compound CCN(CCCCN1C(=O)c2ccccc2C1=O)Cc1ccccc1 ?
Reply: 9.8 µM

Ask: Similarly, C#CCN(CCCCN1C(=O)c2ccccc2C1=O)Cc1ccccc1OC ?
Reply: 8.3 µM

Ask: Please do the same for CN(CCCCN1C(=O)c2ccccc2C1=O)Cc1ccccc1 as well.
Reply: 14.5 µM

Ask: And what about the compound C#CCN(CCCN1C(=O)c2ccccc2C1=O)Cc1ccccc1 ?
Reply: 2.5 µM

Ask: And what about the compound CCN(CCN1C(=O)c2ccccc2C1=O)Cc1ccccc1 ?
Reply: 21.9 µM

Ask: Follow-up entry: CN(CCCN1C(=O)c2ccccc2C1=O)Cc1ccccc1
Reply: 22.9 µM

---

assayed_target: Acetylcholinesterase (Electrophorus electricus, UniProt O42275)
Sequence (O42275 whole entry): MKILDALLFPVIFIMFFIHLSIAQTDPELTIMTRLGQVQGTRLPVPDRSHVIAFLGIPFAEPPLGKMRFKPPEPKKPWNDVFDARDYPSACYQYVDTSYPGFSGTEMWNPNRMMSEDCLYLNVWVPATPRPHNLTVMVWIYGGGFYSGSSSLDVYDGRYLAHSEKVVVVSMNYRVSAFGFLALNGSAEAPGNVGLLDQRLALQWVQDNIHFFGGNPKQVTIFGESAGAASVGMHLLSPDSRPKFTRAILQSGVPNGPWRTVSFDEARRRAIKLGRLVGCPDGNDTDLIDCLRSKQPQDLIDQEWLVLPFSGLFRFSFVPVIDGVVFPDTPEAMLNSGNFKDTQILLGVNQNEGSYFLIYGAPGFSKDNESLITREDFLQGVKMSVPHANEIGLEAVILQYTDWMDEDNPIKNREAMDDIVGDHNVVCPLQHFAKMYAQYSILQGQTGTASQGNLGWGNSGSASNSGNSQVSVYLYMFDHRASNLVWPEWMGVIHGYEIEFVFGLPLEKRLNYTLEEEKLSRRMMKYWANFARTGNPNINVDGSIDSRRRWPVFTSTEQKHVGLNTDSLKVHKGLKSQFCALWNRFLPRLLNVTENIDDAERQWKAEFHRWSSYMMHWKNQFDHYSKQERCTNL
// returns no (0) unless IC50 is strictly below 3 µM, in which case yes (1)

Ask: Here's an entry: COc1ccccc1CN(C)CCCN1C(=O)c2ccccc2C1=O . Is its IC50 below 3 µM?
Reply: no (0)

Ask: Also COc1ccccc1CN(C)CCCCCCN1C(=O)c2ccccc2C1=O , if possible.
Reply: yes (1)

Ask: CC(C)N1CCN(CCCCCCN2C(=O)c3ccccc3C2=O)CC1 ?
Reply: no (0)

Ask: Entry CCN(CCCN1C(=O)c2ccccc2C1=O)Cc1ccccc1 please
Reply: no (0)

Ask: # repeat for CN(CCCN1C(=O)c2ccccc2C1=O)Cc1ccccc1
Reply: no (0)

Ask: Now the compound CCN(CCCCN1C(=O)c2ccccc2C1=O)Cc1ccccc1OC
Reply: yes (1)

---

assayed_target: Acetylcholinesterase (Electrophorus electricus)
protocol_description: Inhibition of electric eel AChE using acetylthiocholine chloride as substrate incubated for 15 mins by Ellman's method
Provide the reported IC50 of each item.
Field: numeric (µM). Do not append units.

Ask: Endpoint output: IC50 of CCN(CCN1C(=O)c2ccccc2C1=O)Cc1ccccc1 . Value?
Reply: 9.3

Ask: And then C#CCN(CCCN1C(=O)c2ccccc2C1=O)Cc1ccccc1 , what is it?
Reply: 0.84

Ask: Try CC(C)N1CCN(CCCCCN2C(=O)c3ccccc3C2=O)CC1 next.
Reply: 7.9

Ask: Note, next up: CN(CCCCN1C(=O)c2ccccc2C1=O)Cc1ccccc1
Reply: 2.6

Ask: CN(CCN1C(=O)c2ccccc2C1=O)Cc1ccccc1 , same question.
Reply: 15.9

Ask: And for CCN(CCN1C(=O)c2ccccc2C1=O)Cc1ccccc1OC ?
Reply: 3.6

Ask: # repeat for C#CCN(CCCCN1C(=O)c2ccccc2C1=O)Cc1ccccc1
Reply: 4.9

Ask: How about this molecule: COc1ccccc1CN(C)CCCCN1C(=O)c2ccccc2C1=O
Reply: 1.3

Ask: Then C#CCN(CCCCCCN1C(=O)c2ccccc2C1=O)Cc1ccccc1 ?
Reply: 6.8

Ask: Subsequent entry: CCN(CCCCCCN1C(=O)c2ccccc2C1=O)Cc1ccccc1
Reply: 1

Ask: Queued: C#CCN(CCCN1C(=O)c2ccccc2C1=O)Cc1ccccc1OC
Reply: 13.5

Ask: Item: CC(C)N1CCN(CCCN2C(=O)c3ccccc3C2=O)CC1
Reply: 12.9
